# Tested on: AD38 cells
# test-name: Viability of AD38 cells (Promega CellTiter-Glo)
# Type: cell-based
# experimental-setup: 10 μM compound, 6 days, CellTiter-Glo luminescence normalized to DMSO control (100%)
metric-name: AD38 Viability Normalized Result (cmpd/DMSO %) at 10 μM
Write the answer as a number in %, unit excluded.

The examples below pair each entry with its known result.
CN1CCC[C@H]1COc1ccc(-c2ncc(CNC(=O)c3ccc4c(c3)NC(=O)c3ccccc3S4(=O)=O)s2)cc1    91
CN(C)c1ccc(-c2ncc(CNC(=O)c3ccc4c(c3)NC(=O)c3ccccc3O4)s2)cn1    90

Query string: Report AD38 Viability Normalized Result (cmpd/DMSO %) at 10 μM for `CN1CC[C@H](Oc2ccc(-c3ncc(CNC(=O)c4ccc5c(c4)NC(=O)c4ccccc4S5(=O)=O)s3)cc2)C1` please.
Result string: 90

Query string: Report AD38 Viability Normalized Result (cmpd/DMSO %) at 10 μM for `CC(C)c1ncc(CNC(=O)c2ccc3c(c2)NC(=O)c2ccccc2S3(=O)=O)s1` please.
Result string: 102
